target: Neu5Ac(a2-3)Gal(b1-4)[Fuc(a1-3)]GlcNAc(b1-6)[Gal(b1-3)]GalNAc; experiment: glycan array binding signal (z-score within array); higher = stronger binding; details: glycan notation: IUPAC condensed, linker removed
The sample as a whole holds a higher share of the strongest signals than the screen did.

# BINDER, glycan array binding signal (z-score)
rows = [
    ("Cohesin-hDCIR (Homo sapiens) (protein) LDDLDAVRIKVDTVNAKPGDTVRIPVRFSGIPSKGIANCDFVYSYDPNVLEIIEIEPGDIIVDPNPDKSFDTAVYPDRKIIVFLFAEDSGTGAYAITKDGVFATIVAKVKEGAPNGLSVIKFVEVGGFANNDLVEQKTQFFDGGANVGDTTEPATPTTPVTTPTTTDDLDAASQKYSQLLEKKTTKELVHTTLECVKKNMPVEETAWSCCPKNWKSFSSNCYFISTESASWQDSEKDCARMEAHLLVINTQEEQDFIFQNLQEESAYFVGLSDPEGQRHWQWVDQTPYNESSTFWHPREPSDPNERCVVLNFRKSPKRWGWNDVNCLGPQRSVCEMMKIHLHHHHHH", -0.187),
]
